Target: human muscarinic M4 receptor (Homo sapiens)
Construct: expressed in transfected cells
Sequence (P08173 1-479): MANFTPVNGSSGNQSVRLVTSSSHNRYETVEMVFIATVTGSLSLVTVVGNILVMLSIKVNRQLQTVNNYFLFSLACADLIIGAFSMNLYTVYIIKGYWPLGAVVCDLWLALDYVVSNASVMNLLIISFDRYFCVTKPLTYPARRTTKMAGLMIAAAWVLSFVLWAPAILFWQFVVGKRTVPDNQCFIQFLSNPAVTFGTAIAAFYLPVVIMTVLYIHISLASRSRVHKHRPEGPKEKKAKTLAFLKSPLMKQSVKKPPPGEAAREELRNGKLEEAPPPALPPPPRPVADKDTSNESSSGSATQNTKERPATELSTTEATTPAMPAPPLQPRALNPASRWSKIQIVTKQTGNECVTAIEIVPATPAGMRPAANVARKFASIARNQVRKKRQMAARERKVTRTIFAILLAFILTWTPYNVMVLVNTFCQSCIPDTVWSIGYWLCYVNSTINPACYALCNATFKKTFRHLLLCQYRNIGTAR
Experiment: Alphascreen Surefire phospho-ERK1/2 functional assay, M4
Type: cell-based
Conditions: CHO, read-out: M4 % Emax cf. ACh, CHO cells stably expressing human M4; Emax relative to ACh
value kind: Emax (%)

CCOC(=O)N1CCCN(C2CCC(C#N)(c3ccc(Cl)cn3)CC2)CC1 (mixture of isomers) [3-16 mixture of isomers] = 90
Cc1noc([C@H]2CC[C@@H](NC3CCC(C#N)(c4ccccn4)CC3)C2)n1 (single isomer, unassigned) [19-1 Isomer 2] = 83
CCc1noc(C2CC3(C2)CN(C2CCC4(CC2)C(=O)Nc2ccccc24)C3)n1 (single isomer, unassigned) [25-1 Isomer 1] = 70

1: O=C1Nc2ccccc2C12CCC(N[C@@H]1CC[C@H](c3nc(C(F)(F)F)no3)C1)CC2 (single isomer, unassigned) [24-1 Isomer 1]
2: CCOC(=O)N1CCCN(C2CCC3(CC2)C(=O)Nc2ncc(OC)cc23)CC1 (single isomer, unassigned) [4-17 isomer 2]
Query: Pick the one with the larger Emax: 1 vs 2 Output the label that corresponds to your choice.
Reply: 1

----------
molecular target: UniProtKB P11229; test: Alphascreen Surefire phospho-ERK1/2 functional assay, M1; assay type: cell-based; details: CHO, read-out: M1 % Emax cf. ACh, CHO cells stably expressing human M1; Emax relative to ACh
Sequence (P11229 whole entry): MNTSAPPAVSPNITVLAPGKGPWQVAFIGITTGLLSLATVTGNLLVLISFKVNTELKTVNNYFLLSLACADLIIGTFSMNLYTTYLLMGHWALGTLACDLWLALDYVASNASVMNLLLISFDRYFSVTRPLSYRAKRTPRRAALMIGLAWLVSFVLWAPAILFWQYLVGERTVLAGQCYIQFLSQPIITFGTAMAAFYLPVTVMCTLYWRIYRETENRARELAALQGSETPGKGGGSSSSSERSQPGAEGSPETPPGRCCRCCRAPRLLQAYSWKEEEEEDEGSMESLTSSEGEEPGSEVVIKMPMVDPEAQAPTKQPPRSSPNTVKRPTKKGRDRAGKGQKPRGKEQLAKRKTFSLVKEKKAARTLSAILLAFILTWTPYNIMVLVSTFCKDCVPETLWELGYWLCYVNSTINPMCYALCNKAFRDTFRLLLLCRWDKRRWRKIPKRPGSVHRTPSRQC
value kind: Emax (%)

CCOC(=O)N1CCCN(C2CCC3(CC2)C(=O)Nc2ncc(Cl)cc23)CC1 (single isomer, unassigned) [4-16 isomer 1] = 60
CCOC(=O)N[C@H]1CCN(C2CCC(C#N)(c3ccc(F)cn3)CC2)C1 (single isomer, unassigned) [1-14 Isomer 2] = 89
CCOC(=O)N[C@H]1CCN(C2CCC3(CC2)C(=O)N(C(=O)OCC)c2ccccc23)C1 (single isomer, unassigned) [2-14 isomer 2] = 77

a: CCOC(=O)N[C@H]1CCN(C2CCC3(CC2)C(=O)Nc2ccc(OC)cc23)C1 (single isomer, unassigned) [2-10 isomer 1]
b: CCc1noc([C@H]2CC[C@@H](NC3CCC(C#N)(c4ccccc4)CC3)C2)n1 (single isomer, unassigned) [19-2 Isomer 2]
Query: Problem: Given the entries a and b , determine which has the lower reported Emax. Output the label that corresponds to your choice.
Reply: a
(a: 64%, b: 118%)

----------
Target: human muscarinic M2 receptor (Homo sapiens)
Experiment: Alphascreen Surefire phospho-ERK1/2 functional assay, M2
Assay type: cell-based
Conditions: CHO, read-out: M2 % Emax cf. ACh
Method: Functional assays were performed using the Alphascreen Surefire phospho-ERK1/2 assay (Crouch & Osmond, Comb. Chem. High Throughput Screen, 2008). […] Plates were incubated for 2 h with gentle agitation in the dark and then read on a PHERAstar plate reader. pEC50 and Emax figures were calculated from the resulting data for each receptor subtype.
value kind: Emax (%)

Answered cases to consult:
CCOC(=O)N[C@H]1CCN(C2CCC3(CC2)C(=O)Nc2ncc(Cl)cc23)C1 (single isomer, unassigned) [2-17 isomer 1] = 7
CCc1noc(C2CC3(C2)CN(C2CCC4(CC2)C(=O)Nc2ccccc24)C3)n1 (single isomer, unassigned) [25-1 Isomer 1] = 13
CCOC(=O)N1CCCN(C2CCC(C#N)(c3ccncc3)CC2)CC1 (mixture of isomers) [3-12 mixture of isomers] = 5

P: CCOC(=O)N1CCCN(C2CCC(C#N)(c3ccc(OC)cc3)CC2)CC1 (mixture of isomers) [3-9 mixture of isomers]
Q: CCOC(=O)N(C)[C@@H]1CCN(C2CCC3(CC2)C(=O)Nc2ncccc23)C1 (single isomer, unassigned) [2-18 isomer 1]
R: CCOC(=O)N[C@H]1CCN(C2CCC3(CC2)C(=O)Nc2ccc(C)cc23)C1 (single isomer, unassigned) [2-5 isomer 1]
S: CCOC(=O)N[C@H]1CCN(C2CCC(C#N)(c3cccc(F)c3)CC2)C1 (single isomer, unassigned) [1-3 Isomer 2]
T: CCOC(=O)N1CCCN(C2CCC(C#N)(c3cccc(F)c3)CC2)CC1 (mixture of isomers) [3-2 mixture of isomers]
Query: rank_up(items): orders items by reported Emax in ascending numerical order. Note for the reader: the ranking is given by listing the labels in the order requested.
Reply: S, T, R, Q, P
(S: 0%, T: 7%, R: 13%, Q: 21%, P: 33%)

1: CCOC(=O)N[C@H]1CCN(C2CCC3(CC2)C(=O)Nc2ccc(OC)cc23)C1 (single isomer, unassigned) [2-10 isomer 1]
2: CCOC(=O)N1CCCN(C2CCC3(CC2)C(=O)Nc2cccc(C)c23)CC1 (single isomer, unassigned) [4-8 isomer 2]
Query: Problem: Given the entries 1 and 2 , determine which has the lower reported Emax. Output the label that corresponds to your choice.
Reply: 2

1: Cc1ccc2c(c1)C1(CCC(N3CCC4(CC(c5nc(C)no5)C4)C3)CC1)C(=O)N2 (single isomer, unassigned) [26-1 Isomer 2]
2: CCOC(=O)N1CCCN(C2CCC(C#N)(c3ccccc3Cl)CC2)CC1 (mixture of isomers) [3-4 mixture of isomers]
Query: Problem: Given the entries 1 and 2 , determine which has the lower reported Emax. Output the label that corresponds to your choice.
Reply: 2

A: CCOC(=O)N[C@H]1CCN(C2CCC3(CC2)C(=O)Nc2cccc(C)c23)C1 (single isomer, unassigned) [2-6 isomer 1]
B: CCOC(=O)N[C@H]1CCN(C2CCC(C#N)(c3ccccc3)CC2)C1 (single isomer, unassigned) [1-1 Isomer 2]
C: CCOC(=O)N1CC2(CCN(C3CCC(C#N)(c4ccccc4)CC3)CC2)C1 (single isomer, unassigned) [11-1 Isomer 2]
D: CCOC(=O)N[C@@H]1CCN(C2CCC(C#N)(c3ccccc3F)CC2)C1 (single isomer, unassigned) [1-5 Isomer 2]
Query: rank_up(items): orders items by reported Emax in ascending numerical order. Note for the reader: the ranking is given by listing the labels in the order requested.
Reply: C, B, D, A

P: C#CCOC(=O)N1CCCN(C2CCC(C#N)(c3ccc(OC)cn3)CC2)CC1 (single isomer, unassigned) [3-31 Isomer 1]
Q: CCOC(=O)N1CCCN(C2CCC(C#N)(c3ccccc3C)CC2)CC1 (mixture of isomers) [3-7 mixture of isomers]
Query: Pick the one with the larger Emax: P vs Q Output the label that corresponds to your choice.
Reply: Q
(Q: 35%, P: 8%)

----------
Target: human muscarinic M2 receptor (Homo sapiens, UniProt P08172)
Sequence (P08172 1-466): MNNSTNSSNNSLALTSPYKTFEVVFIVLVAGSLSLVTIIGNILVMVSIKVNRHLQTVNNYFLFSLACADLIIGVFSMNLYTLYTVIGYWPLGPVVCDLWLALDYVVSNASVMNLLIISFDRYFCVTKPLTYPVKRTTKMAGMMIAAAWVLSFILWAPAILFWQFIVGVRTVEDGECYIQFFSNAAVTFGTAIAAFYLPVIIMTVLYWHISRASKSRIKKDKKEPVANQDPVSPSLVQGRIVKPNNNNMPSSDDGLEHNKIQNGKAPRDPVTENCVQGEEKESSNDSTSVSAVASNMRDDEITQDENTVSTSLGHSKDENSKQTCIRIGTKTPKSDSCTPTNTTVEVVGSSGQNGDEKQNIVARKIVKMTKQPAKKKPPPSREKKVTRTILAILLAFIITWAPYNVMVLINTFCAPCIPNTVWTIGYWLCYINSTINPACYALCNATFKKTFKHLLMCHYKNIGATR
Assay: Alphascreen Surefire phospho-ERK1/2 functional assay, M2
Assay type: cell-based
Details: CHO, read-out: M2 % Emax cf. ACh
value kind: Emax (%)

Answered cases to consult:
CCOC(=O)N1CCCN(C2CCC(C#N)(c3ccccn3)CC2)CC1 (mixture of isomers) [3-11 mixture of isomers] = 43
CCOC(=O)N1CCCN(C2CCC(C#N)(c3cccc(Cl)c3)CC2)CC1 (mixture of isomers) [3-5 mixture of isomers] = 5

I: Cc1ccc2c(c1)C1(CCC(N3CCC[C@@H](c4nc(C)no4)C3)CC1)C(=O)N2 (single isomer, unassigned) [22-3 Isomer 1]
II: CCOC(=O)N[C@H]1CCN(C2CCC3(CC2)C(=O)Nc2cc(C)ccc23)C1 (single isomer, unassigned) [2-4 isomer 1]
Query: Pick the one with the larger Emax: I vs II Output the label that corresponds to your choice.
Reply: I
